# protocol: compounds altering RPL19A-GFP fluorescence, TOR branch – cell-based, S. cerevisiae, multiplex flow cytometry, MLPCN, primary screen (AID 2025);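 also: median channel GFP fluorescence of the barcoded RPL19A-GFP strain; ratio of sample median GFP to plate DMSO average so 100% = DMSO; lower means less RPL19A-GFP as with rapamycin TOR inhibition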
# conditionContext: S. cerevisiae RPL19A-GFP strain, 3 h, at 10 µM, stronger effect = lower value
Hit rate of the full screen: of about 330,000 compounds, about 980 (0.3%) were called active. The list comes from a sample in which actives are over-represented; it also holds close analogues and randomly drawn compounds.
Provide the recorded percent response vs DMSO for the entries that follow.

IN: Supply recorded percent response vs DMSO for CC(C)CCN1CCN=C1N(C)C here.
OUT: 99.1% (inactive)

IN: Return percent response vs DMSO (reported value) for this compound: Cc1cc(-c2ccc(C)c(S(=O)(=O)Nc3ccc(S(N)(=O)=O)cc3)c2)on1
OUT: 99% (inactive)

IN: Give me measured percent response vs DMSO, please, for this compound: Cc1nccn1CC(=O)N/N=C/c1ccc(O)c(O)c1
OUT: 103% (inactive)

IN: Input Cc1noc(C)c1S(=O)(=O)NCCc1ccc(S(N)(=O)=O)cc1 , output reported percent response vs DMSO.
OUT: 95.7% (inactive)

IN: Fill in percent response vs DMSO for record CCc1ccc(-c2cc(C)no2)cc1S(=O)(=O)NCCc1ccc(S(N)(=O)=O)cc1
OUT: 33.8% [may fluoresce violet] (active)

IN: Item O=C(O)CSc1nccc2ccccc12 : provide percent response vs DMSO
OUT: 102% (inactive)

====

# protocol: compounds altering RPL19A-GFP fluorescence, TOR branch – cell-based, S. cerevisiae, multiplex flow cytometry, MLPCN, primary screen (AID 2025);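 also: median channel GFP fluorescence of the barcoded RPL19A-GFP strain; ratio of sample median GFP to plate DMSO average so 100% = DMSO; lower means less RPL19A-GFP as with rapamycin TOR inhibition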
# conditionContext: S. cerevisiae RPL19A-GFP strain, 3 h, at 10 µM
Screen size: about 330,000 compounds; about 980 (0.3%) were called active.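 The calls were made as follows: active = percent response vs DMSO below 50%; inconclusive = fewer than 70 events counted for the yeast strain; inactive = the rest.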 What follows is part of a selection rich in actives, with near analogues and random picks from the rest.
Lab note: assign the record to one of active, inactive

IN: GET /call?item= O=C(c1ccco1)N(Cc1nc2ccccc2c(=O)[nH]1)C1CCCC1 returns the recorded outcome of this test.
OUT: active

IN: Status in this test for Cc1c(C(=O)Nc2cccc(-c3nnc4n3CCCCC4)c2)oc2ccccc12 ?
OUT: inactive

IN: Hi team, can someone confirm the assay call for O=C(NCc1ccccc1Cl)C1CCN(S(=O)(=O)N2CCOCC2)CC1 ?
OUT: inactive

IN: In this assay, the call recorded for COc1cc(C(C(=O)NC2CCCC2)N(C(=O)c2ccco2)c2ccccc2C(C)=O)cc(OC)c1OC (configuration not stated) was what?
OUT: inactive

IN: GET /call?item= Oc1ccc2ccc3cccc[n+]3c2c1 returns the recorded outcome of this test.
OUT: inactive

IN: Each compound tested received a call. Report the one for CCCCNC(=O)c1cn(CC)c2cc(N3CCN(C(=O)c4ccco4)CC3)c(F)cc2c1=O .
OUT: inactive

IN: Record request — test call for CC(=O)OC(C(=O)NCCc1ccccc1)c1cccnc1 (configuration not stated)
OUT: active

IN: Which outcome did this test record for the compound CCCc1nn2c(=O)cc(CSCC(=O)Nc3cccc(C)c3)nc2s1 ?
OUT: inactive

IN: Kindly provide the recorded test outcome for the following compound: COc1ccc(Cn2c(C)c(C)c(C#N)c2NC(=O)Nc2ccc(F)cc2)cc1
OUT: inactive

IN: For Cc1cccc(NC(=O)c2cccc(C(=O)Nc3cccc(C)c3C)n2)c1C , what call appears in the results of this test?
OUT: active

IN: Which result was noted for this compound in the test: Cc1ccc(-c2csc(NC(=O)Cn3[nH]c(=O)c4ccccc4c3=O)n2)cc1
OUT: inactive

IN: # lookup: test call for Cc1ccccc1S(=O)(=O)N1[C@@H](c2cccc(Cl)c2)C(C(=O)O)=CC[C@H]1c1ccc(Cl)cc1
OUT: inactive

FYI, the data here is from PubChem BioAssay AID2025.
